target or test system: 5HT6 receptor (Homo sapiens, UniProt P50406)
Sequence (P50406 whole entry): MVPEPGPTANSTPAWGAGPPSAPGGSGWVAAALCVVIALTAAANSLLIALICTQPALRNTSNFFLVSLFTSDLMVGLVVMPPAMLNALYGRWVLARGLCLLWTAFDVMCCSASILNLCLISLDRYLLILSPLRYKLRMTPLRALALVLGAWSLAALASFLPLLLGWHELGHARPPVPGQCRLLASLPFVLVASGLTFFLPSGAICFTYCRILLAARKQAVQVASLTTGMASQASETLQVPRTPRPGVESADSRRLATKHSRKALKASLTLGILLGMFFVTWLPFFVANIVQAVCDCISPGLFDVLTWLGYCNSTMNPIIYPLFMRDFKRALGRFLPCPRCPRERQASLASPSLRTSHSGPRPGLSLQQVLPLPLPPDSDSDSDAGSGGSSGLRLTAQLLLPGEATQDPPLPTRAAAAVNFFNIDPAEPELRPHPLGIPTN
procedure summary: Displacement of [3H]-LSD from recombinant human 5HT6 receptor stably expressed in HEK cell membranes at 10 uM measured after 90 mins by microbeta scintillation counting method relative to control
details: probe [3H]-LSD
result type: inhibition at […], 10 µM

compound="CCCN[C@H]1CCc2nc(N)sc2C1 [PRAMIPEXOLE]" result_type="inhibition at […], 10 µM" reading="> 50%"
compound=CCCN(CC[C@]1(O)C[C@H](NC(=O)c2ccc3ccccc3c2)C1)[C@H]1CCc2nc(N)sc2C1 result_type="inhibition at […], 10 µM" reading="< 50%"
